// data source = paper PMC9490236

# run_parameters: PAMPA
Where a SMILES comes first, the peptide text is derived from it. [ ]: non-standard residue; d: D form. NMeF = CN[C@@H](Cc1ccccc1)C(=O)O; NMeL = CN[C@@H](CC(C)C)C(=O)O; dNMeL = CN[C@H](CC(C)C)C(=O)O; NMeM = CN[C@@H](CCSC)C(=O)O; dNMeA = CN[C@H](C)C(=O)O; Sar = CNCC(=O)O
This listing pairs compounds with measured PAMPA_R1.
Please reply with the value in numeric form only.

>>> numeric_result("CC(C)C[C@@H]1NC(=O)[C@@H]2CCCN2C(=O)[C@H]2CCCN2C(=O)[C@@H](C)N(C)C(=O)[C@@H](CC(C)C)N(C)C(=O)[C@H](C(C)C)NC(=O)[C@@H](C)N(C)C(=O)[C@H]2CCCN2C(=O)[C@@H]2CCCN2C1=O [Design D9.22] (cyclo(LP[dP][dNMeA]V[dNMeL][dNMeA][dP]P))")
"1.87E-07"
>>> numeric_result("CC[C@H](C)[C@@H]1NC(=O)[C@@H](C(C)C)NC(=O)[C@H](CC(C)C)N(C)C(=O)[C@H]2CCCN2C(=O)[C@H]2CCCN2C(=O)[C@H](C(C)C)NC(=O)[C@@H](CC(C)C)NC(=O)[C@H]2CCCN2C1=O [Design D8.16, DPRO DLEU VAL DPRO DPRO *LEU DVAL ILE] (cyclo(I[dP][dL]V[dP][dP][NMeL][dV]))")
"2.86E-06"
>>> numeric_result("CC[C@@H](C)[C@H]1NC(=O)[C@@H](Cc2ccccc2)NC(=O)[C@H](CC(C)C)NC(=O)[C@@H](C)N(C)C(=O)[C@@H](CC(C)C)NC(=O)[C@H](CC(C)C)NC(=O)[C@H]2CCCN2C(=O)[C@@H]2CCCN2C(=O)[C@@H](C)NC(=O)[C@H]2CCCN2C1=O [Design D10.37] (cyclo(L[dF][dI][dP][dA]P[dP]L[dL][dNMeA]))")
"7.62E-07"
>>> numeric_result("CC(C)C[C@@H]1NC(=O)[C@@H](CC(C)C)N(C)C(=O)[C@@H]2CCCN2C(=O)[C@H](CC(C)C)N(C)C(=O)[C@@H](C)NC(=O)[C@@H](CC(C)C)N(C)C(=O)[C@@H]2CCCN2C(=O)CN(C)C(=O)[C@H](CC(C)C)N(C)C(=O)[C@H](Cc2ccccc2)NC1=O [Design D10.57] (cyclo(F[NMeL][Sar]P[dNMeL][dA][NMeL]P[dNMeL]L))")
"2.94E-06"
>>> numeric_result("CC[C@@H](C)[C@H]1NC(=O)[C@H](CC(C)C)N(C)C(=O)[C@H]2CCCN2C(=O)[C@H](CC(C)C)NC(=O)[C@H](Cc2ccccc2)N(C)C(=O)[C@H](CC(C)C)N(C)C(=O)[C@@H](C(C)C)NC(=O)[C@H](C)NC(=O)[C@H]2CCCN2C(=O)[C@@H]2CCCN2C1=O [Design D10.17.p2]")
"3.37E-06"
>>> numeric_result("CC[C@H](C)[C@@H]1NC(=O)[C@H]2CCCN2C(=O)[C@@H]2CCCN2C(=O)[C@H](C(C)C)NC(=O)[C@@H](C(C)C)NC(=O)[C@H](Cc2ccccc2)N(C)C(=O)[C@H]2CCCN2C(=O)[C@@H](CC(C)C)N(C)C(=O)[C@@H](CC(C)C)NC1=O [Design D9.42] (cyclo(I[dL][dNMeL][dP][NMeF][dV]VP[dP]))")
"1.18E-06"

// PAMPA_R1 lookup, key: CC(C)C[C@@H]1NC(=O)[C@@H](CC(C)C)NC(=O)[C@@H](CC(C)C)N(C)C(=O)[C@@H](CC(C)C)N(C)C(=O)[C@H](C(C)C)NC(=O)[C@@H](C)N(C)C(=O)[C@@H]2CCCN2C(=O)[C@@H]2CCCN2C(=O)[C@@H](C)N(C)C1=O [Design D9.19] (cyclo(L[dNMeA]PP[dNMeA]V[dNMeL][dNMeL][dL]))
1.47E-06

Can you handle CSCC[C@H]1C(=O)N(C)[C@H](C)C(=O)N[C@H](CC(C)C)C(=O)N2CCC[C@@H]2C(=O)N2CCC[C@H]2C(=O)N[C@@H](CC(C)C)C(=O)N2CCC[C@H]2C(=O)N2CCC[C@@H]2C(=O)N[C@H](C(C)C)C(=O)N1C [Design D9.24] (cyclo(LP[dP][dV][NMeM][dNMeA][dL][dP]P)) next?
7.85E-08
